- Tested on: LOX IMVI
- Assay method text: NCI tumour cell line growth inhibition, 48 h
Calls of active or inactive are those of the source. Cut-off read from the data, not from the text of the source: active = GI50 up to about 1.1 µM and inactive = higher.
Labels: active, inactive

* CC(Br)C(=O)NN1C2=C(Nc3ccccc31)c1cccc3cccc2c13 (stereo unspecified) | inactive
* CC1=NN(c2cccc(Cl)c2)C2(SCC(=O)N2c2nc3ccccc3s2)C1=CC=Cc1ccccc1 (stereo unspecified) | inactive
* CN(C)C(=O)Oc1c(Br)cc(Br)cc1C(=O)OCc1ccccc1 | inactive
* CN(C)c1ccc(/C=C/C(=O)CC(=O)/C=C/c2ccc(N(C)C)cc2)cc1 | inactive
* CC(c1ccccc1)C(O)S(=O)(=O)O (stereo unspecified) | inactive
* CC1CC(=O)C(CC(=O)O)C1C(C(=O)C(=O)Nc1c(C#N)cccc1[N+](=O)[O-])[N+](=O)[O-] (stereo unspecified) | inactive
* Cc1ccc(-c2cnc(NC3OC(COC(=O)c4ccccc4)C(OC(=O)c4ccccc4)C(OC(=O)c4ccccc4)C3OC(=O)c3ccccc3)s2)cc1 (stereo unspecified) | inactive
* Cc1cc(S(=O)(=O)Nc2n[nH]c(-c3ccc(Cl)cc3)n2)c(SSc2cc(Cl)c(C)cc2S(=O)(=O)Nc2n[nH]c(-c3ccc(Cl)cc3)n2)cc1Cl | inactive
* CCOC(=O)NC(=O)c1cn(C2OC(CO)C(O)C2O)c(=O)[nH]c1=O (stereo unspecified) | inactive
* CC(C)(C)[Si](C)(C)OCC1OC(n2cc(I)c(=O)[nH]c2=O)C(O[Si](C)(C)C(C)(C)C)C1O[Si](C)(C)C(C)(C)C (stereo unspecified) | inactive
* Cn1c2nc3ccccc3c-2cc2ccccc21 [NEOCRYPTOLEPINE] | inactive
* COc1ccc2c(c1)CC[C@@H]1C2CC[C@]2(C)C(=N\O)/C(=N/O)CC12 (stereo partly specified) | inactive
* Cc1cc2c(cc1C)NC1=C(O)C(c3c[nH]c4ccc(COc5ccccc5)cc34)OC1=N2 (stereo unspecified) | inactive
* COC1(OC)CC(CO)(CNc2nc(N)nc(Cl)c2/C=N\O)C1 | inactive
* C[C@@H](NC1CCCC[C@H]1O)c1ccccc1 (stereo partly specified) | inactive
* N#C/C(=C\c1cn(Cc2ccccc2)c2ccccc12)c1nn(-c2ccccc2)c(N)c1C#N | inactive
* CS(C)(=O)=Nn1c(=O)n2n(c1=O)C1c3ccccc3C2c2ccccc21 | inactive
* COc1ccc2cc3n(c2c1)CCc1cc(OC)c(OC)cc1-3 | inactive
* N/C(S)=N/N=C/c1cc(CN2CCOCC2)c(N)cn1 | inactive
* N#Cc1cccc(NC(=O)c2ccc(C(=O)O)c(C(=O)c3ccc(C(=O)O)c(C(=O)Nc4cccc(C#N)c4)c3)c2)c1 | inactive
* CC12CCC3c4ccc(O)cc4CCC3C1C/C(=N\O)C2O (stereo unspecified) | inactive
* OC(COc1cccc2ccccc12)CN1CCOCC1 (stereo unspecified) | inactive
* O=C1c2ccc(O)c(O)c2C(=O)c2c(O)ccc(O)c21 [QUINALIZARIN] | inactive
* COc1ccc2cc(CNCCCN3CCN(CCCNCc4ccc5cc(OC)ccc5c4)CC3)ccc2c1 | active
* C=CCO/N=C/c1cc(/N=C(/S)c2ccoc2C)ccc1Cl | inactive
* CC(=O)O[C@H]1C(=O)N(c2cc3c4ccccc4ccc3c3ccccc23)[C@@H]1c1ccccc1 | inactive
* O=C(CC(=O)c1cccc([N+](=O)[O-])c1)C(=O)Nc1ccccc1 | inactive
* O=C1NC(=O)C(C(CC(=O)c2ccc([N+](=O)[O-])cc2)c2ccccc2)C(=O)N1 (stereo unspecified) | inactive
* O=C1c2ccccc2C(=O)c2sc(Nc3ccccc3C(F)(F)F)nc21 | inactive
* COc1c(Sc2ccccc2)cc(Sc2ccccc2)c2cccnc12 | inactive
* CCCCNS(=O)(=O)c1ccc(-c2ccc3c(c2)-c2ccc(S(=O)(=O)NCCCC)cc2S3(=O)=O)cc1 | inactive
* O=C(CC1(O)C(=O)Nc2ccc([N+](=O)[O-])cc21)c1ccncc1 (stereo unspecified) | inactive
* COc1cccc(-c2cccc(SC)n2)n1 | inactive
* O=C(NC(=S)Nc1ccc(Br)cc1)c1ccc2c(c1)Sc1ccccc1O2 | inactive
* CN(C)CC[N+]1=Nc2cccc3cccc(c23)N1 | inactive
* CC(=O)OCC1(C)C(O)CCC2(C)C1CCC1CC3CC12CCC3(O)CO (stereo unspecified) | inactive
* O=C(O)c1cc2c(s1)C(=O)c1sccc1C2=O | inactive
* OCCOCn1nncc1Cn1ncc2c(O)ncnc21 | inactive
* OCc1ccccc1O[C@H]1O[C@H](CO)[C@@H](O)[C@H](O)[C@H]1O | inactive
* COc1cccc(C2c3cc4c(cc3OC(C)(N3CCCC3)C2C)OCO4)c1O (stereo unspecified) | inactive
* Cc1nc2ccc(F)cc2c(Cl)c1CCCl | inactive
